- Test system: ICR (CD-1) mice
- run_description: In vivo toxicity in mice (SC, IN, IP routes)
- condition_context: IP, 3 doses (1hr, 12hr, 24hr); RN7-IN10, RN7-IN8 20 mg/kg; RN7-IN9, RN7-IN6 10 mg/kg; day 7; mean±SD, 4 mice
Reported White blood cells, WBC by item:
reported_property: White blood cells, WBC

# substance, reported_property, recorded_value
data = [
    ("FLGGLIKKWPWWPWRR-NH2 [RN7-IN9, hybrid peptide of ranalexin (residues 1-7) and indolicidin (residues 5-13)]", "White blood cells, WBC", "3.7±1.54 10^3/mm^3"),
    ("FLGGLIKWPWWPWRR-NH2 [RN7-IN8, hybrid peptide of ranalexin (residues 1-7) and indolicidin (residues 6-13)]", "White blood cells, WBC", "4.18±0.36 10^3/mm^3"),
    ("FLGGLIKWWPWRR-NH2 [RN7-IN6, hybrid peptide of ranalexin (residues 1-7) and indolicidin (residues 8-13)]", "White blood cells, WBC", "4.1±0.72 10^3/mm^3"),
    ("FLGGLIKWKWPWWPWRR-NH2 [RN7-IN10, hybrid peptide of ranalexin (residues 1-7) and indolicidin (residues 4-13)]", "White blood cells, WBC", "4.2±0.55 10^3/mm^3"),
]

====

- System: ICR (CD-1) mice
- run_description: In vivo toxicity in mice (SC, IN, IP routes)
- Parameters: unit not given here
- condition_context: serum; IN, 3 doses (1hr, 12hr, 24hr); head doses: RN7-IN10, RN7-IN8 20 mg/kg; RN7-IN9, RN7-IN6 10 mg/kg; day 7; mean±SD, 4 mice
reported_property: Creatinine

# substance, recorded_value
measured = [
    ("FLGGLIKKWPWWPWRR-NH2 [RN7-IN9, hybrid peptide of ranalexin (residues 1-7) and indolicidin (residues 5-13)]", 37.66),
    ("FLGGLIKWWPWRR-NH2 [RN7-IN6, hybrid peptide of ranalexin (residues 1-7) and indolicidin (residues 8-13)]", 40.15),
    ("FLGGLIKWKWPWWPWRR-NH2 [RN7-IN10, hybrid peptide of ranalexin (residues 1-7) and indolicidin (residues 4-13)]", 40.94),
    ("FLGGLIKWPWWPWRR-NH2 [RN7-IN8, hybrid peptide of ranalexin (residues 1-7) and indolicidin (residues 6-13)]", 40.56),
]

====

Reported Eosinophil by item:
- Tested on: ICR (CD-1) mice
- run_description: In vivo toxicity in mice (SC, IN, IP routes)
- condition_context: IP, 3 doses (1hr, 12hr, 24hr); RN7-IN10, RN7-IN8 20 mg/kg; RN7-IN9, RN7-IN6 10 mg/kg; day 7; mean±SD, 4 mice

# substance, unit_tag, Eosinophil
rows = [
    ("FLGGLIKKWPWWPWRR-NH2 [RN7-IN9, hybrid peptide of ranalexin (residues 1-7) and indolicidin (residues 5-13)]", "%", 3.95),
    ("FLGGLIKWWPWRR-NH2 [RN7-IN6, hybrid peptide of ranalexin (residues 1-7) and indolicidin (residues 8-13)]", "%", 3.22),
    ("FLGGLIKWPWWPWRR-NH2 [RN7-IN8, hybrid peptide of ranalexin (residues 1-7) and indolicidin (residues 6-13)]", "%", 2.34),
    ("FLGGLIKWKWPWWPWRR-NH2 [RN7-IN10, hybrid peptide of ranalexin (residues 1-7) and indolicidin (residues 4-13)]", "%", 2.23),
]

These entries and their values trace back to paper PMC5632533.
